Test system: Rattus norvegicus
Experiment: Antiallergic activity in po dosed Sprague-Dawley rat passive cutaneous analphylaxis model assessed as inhibition of allergic response administered 10 mins prior to antigen challenge
Assay type: functional
Conditions: read-out: ID50 (the source's name)
measured.quantity: ED50 (mg/kg)
Reply numerically in mg/kg, unit not repeated.

                         molecule_smiles  measured_quantity  obs_value
0  CCOc1cccc(-c2ncc(C(=O)O)c(=O)[nH]2)c1               ED50          5
1       CCOC(=O)c1cnc(-c2cccc(OC)c2)nc1O               ED50         10
2   CCCOc1ccccc1-c1ncc(C(=O)O)c(=O)[nH]1               ED50        0.9

Lab note: next compound to report on.
Look up and report measured ED50 (Rattus norvegicus) for the following compound: "CCOc1ccc(S(=O)(=O)N(CC)CC)cc1-c1ncc(C(=O)O)c(=O)[nH]1"
40

----------
Here the recorded ED50 is given for each entry.
Test system: Rattus norvegicus
Assay: Antiallergic activity in po dosed Sprague-Dawley rat passive cutaneous analphylaxis model assessed as inhibition of allergic response administered 10 mins prior to antigen challenge
Assay type: functional
Details: read-out: ID50 (the source's name)
Give the value in mg/kg but do not write mg/kg after it.

The examples below pair each entry with its known result.
>>> df
                            molecule_smiles  obs_value
0  CCOc1ccc([N+](=O)[O-])cc1-c1ncc(C(=O)O)c(=O)[nH]1         25
1  CCOC(=O)c1cnc(-c2cc([N+](=O)[O-])ccc2OCC)[nH]c1=O          5
2   CCOc1ccc(Cl)cc1-c1ncc(C(=O)O)c(=O)[nH]1        0.5
3  CCOC(=O)c1cnc(-c2cc(S(=O)(=O)N(C)C)ccc2OCC)[nH]c1=O         50
4    CCOC(=O)c1cnc(-c2cc(N)ccc2OCC)[nH]c1=O        0.5

Answer with the recorded ED50 of "O=C(O)c1cnc(-c2ccccc2Cl)[nH]c1=O" only.
5

Quickly give me recorded ED50 for "CCOc1ccc(OC)cc1-c1ncc(C(=O)O)c(=O)[nH]1"
0.2

Complete the entry with ED50 for "CCOc1ccc(N(C)C)cc1-c1ncc(C(=O)O)c(=O)[nH]1"
0.3

State, in one line, measured ED50 of "CCOC(=O)c1cnc(-c2cc(OC)ccc2OCC)[nH]c1=O"
0.3

Give me measured ED50, please, for this molecule: "CCOC(=O)c1cnc(-c2ccccc2Cl)[nH]c1=O"
5

Item "O=C(O)c1cnc(-c2ccccc2OCc2ccccc2)[nH]c1=O" : provide ED50
5

For "CCCOc1ccccc1-c1ncc(C(=O)OCC)c(=O)[nH]1" , write its ED50.
5

Please list ED50 recorded for the molecule "CCCOc1ccc(OC)cc1-c1ncc(C(=O)OCC)c(=O)[nH]1"
0.7

Respond only with ED50 recorded for "CC(C)Oc1ccccc1-c1ncc(C(=O)O)c(=O)[nH]1"
0.8

# return recorded ED50 for entry "CCOC(=O)c1cnc(-c2cc(S(N)(=O)=O)ccc2OCC)[nH]c1=O"
50

Give reported ED50 value for "CCCCCOc1ccccc1-c1ncc(C(=O)O)c(=O)[nH]1"
3

Answer with reported ED50 of "CCOC(=O)c1cnc(-c2ccccc2OC)[nH]c1=O"
10

----------
Tested on: Rattus norvegicus
Experiment: Antiallergic activity in po dosed Sprague-Dawley rat passive cutaneous analphylaxis model assessed as inhibition of allergic response administered 10 mins prior to antigen challenge
Assay type: functional
Conditions: read-out: ID50 (the source's name)
Let's look at some compounds and their measured ED50.
Kindly answer with a numeric value in mg/kg, unit omitted.

Solved entries (count: 2):
In [3]: df
Out[3]:
                                   compound  measured_quantity  obs_value
0   CCOC(=O)c1cnc(-c2ccccc2OCC2CC2)[nH]c1=O               ED50        0.3
1  CCOC(=O)c1cnc(-c2cc(S(=O)(=O)N(CC)CC)ccc2OCC)[nH]c1=O               ED50         10

Supply ED50 value. Item: "CCOC(=O)c1cnc(-c2ccccc2OCC)[nH]c1=O"
2

Identify the reported ED50 for the following entry. CC1Cc2cccc(-c3ncc(C(=O)O)c(=O)[nH]3)c2O1 (racemic)
5

Return the recorded ED50 value; entry: "CCOc1ccc(N)cc1-c1ncc(C(=O)O)c(=O)[nH]1"
1.2

Quick one: give measured ED50 for "Nc1ccccc1-c1ncc(C(=O)O)c(=O)[nH]1"
50

Read off the recorded ED50 for "C=CCOc1ccccc1-c1ncc(C(=O)OCC)c(=O)[nH]1"
0.5

----------
System: Rattus norvegicus
Experiment: Antiallergic activity in po dosed Sprague-Dawley rat passive cutaneous analphylaxis model assessed as inhibition of allergic response administered 10 mins prior to antigen challenge
Assay type: functional
Details: read-out: ID50 (the source's name)
measured.quantity: ED50

                            molecule_smiles   obs_value
0  CCOc1ccc(S(=O)(=O)N(C)C(C)C)cc1-c1ncc(C(=O)O)c(=O)[nH]1  > 10 mg/kg
1         CCOc1ccccc1-c1nc(=O)c(C(=O)O)cn1C  > 40 mg/kg

Here is the next item to consider.
In one line, give reported ED50 of the entry "O=C(O)c1cnc(-c2ccccc2O)[nH]c1=O" .
> 5 mg/kg

----------
System: Rattus norvegicus
Test: Antiallergic activity in po dosed Sprague-Dawley rat passive cutaneous analphylaxis model assessed as inhibition of allergic response administered 10 mins prior to antigen challenge
Assay type: functional
Details: read-out: ID50 (the source's name)
measured.quantity: ED50

Below, each entry is followed by its recorded ED50 result.
In [3]: df
Out[3]:
                            molecule_smiles   obs_value
0        CSc1ccccc1-c1ncc(C(=O)O)c(=O)[nH]1  > 20 mg/kg
1      CCOC(=O)c1cnc(-c2ccc(Cl)cc2)[nH]c1=O  > 30 mg/kg
2          CCOC(=O)c1cnc(-c2ccccc2)n(C)c1=O   > 5 mg/kg
3           O=C(O)c1cnc(-c2ccccc2F)[nH]c1=O     5 mg/kg
4     CCOC(=O)c1cnc(-c2cccc(OCC)c2)[nH]c1=O    50 mg/kg
5  CCOC(=O)c1cnc(-c2cccc(C(F)(F)F)c2)[nH]c1=O    50 mg/kg

Return the recorded ED50 value; entry: "CCOC(=O)c1ccc(OCC)c(-c2ncc(C(=O)OCC)c(=O)[nH]2)c1"
1 mg/kg

Retrieve ED50 measured for "CCOC(=O)c1cnc(-c2cc(Cl)ccc2OCC)[nH]c1=O" and print it.
0.5 mg/kg

Give reported ED50 value for "CCOC(=O)c1cnc(-c2ccc(OC)cc2)[nH]c1=O"
30 mg/kg

Identify the reported ED50 for the following entry. "CCOC(=O)c1cnc(-c2cc(OC)ccc2OC)[nH]c1=O"
5 mg/kg

// fetch ED50 given entry "CCOc1ccc(C(=O)O)cc1-c1ncc(C(=O)O)c(=O)[nH]1"
25 mg/kg

Complete the entry with ED50 for "CCOC(=O)c1cnc(-c2cc(S(=O)(=O)N(C)C(C)C)ccc2OCC)[nH]c1=O"
> 10 mg/kg

----------
Test system: Rattus norvegicus
Experiment: Antiallergic activity in po dosed Sprague-Dawley rat passive cutaneous analphylaxis model assessed as inhibition of allergic response administered 10 mins prior to antigen challenge
Type: functional
Settings: read-out: ID50 (the source's name)
Recorded ED50 values for a group of molecules are listed next.

                               molecule   obs_value
0  COc1ccc(-c2ncc(C(=O)O)c(=O)[nH]2)cc1   > 5 mg/kg
1          CCOC(=O)c1cnc(-c2ccccc2)nc1O  > 20 mg/kg

# input for lookup
Recall and state the measured ED50 for C[S+]([O-])c1ccccc1-c1ncc(C(=O)O)c(=O)[nH]1 (stereo not drawn) .
> 5 mg/kg

----------
Tested on: Rattus norvegicus
Assay: Antiallergic activity in po dosed Sprague-Dawley rat passive cutaneous analphylaxis model assessed as inhibition of allergic response administered 10 mins prior to antigen challenge
Assay type: functional
Details: read-out: ID50 (the source's name)
# key: entry, value: ED50

Provide measured ED50 value, entry: "O=C(O)c1cnc(-c2ccccc2[N+](=O)[O-])[nH]c1=O"
> 50 mg/kg

In one line, give reported ED50 of the entry "CCOC(=O)c1cnc(-c2ccccc2OCC)n(C)c1=O" .
> 40 mg/kg

----------
Tested on: Rattus norvegicus
Experiment: Antiallergic activity in po dosed Sprague-Dawley rat passive cutaneous analphylaxis model assessed as inhibition of allergic response administered 10 mins prior to antigen challenge
Format: functional
Conditions: read-out: ID50 (the source's name)
ED50 values by entry

>>> print(df.to_string())
                            molecule_smiles  measured_quantity   obs_value
0  CCOC(=O)c1cnc(-c2ccccc2OCc2ccccc2)[nH]c1=O               ED50   > 5 mg/kg
1             CCOC(=O)c1cnc(-c2ccccc2)nc1OC               ED50   > 5 mg/kg
2        CCOC(=O)c1cnc(-c2ccccc2SC)[nH]c1=O               ED50  > 25 mg/kg

Shifting focus to the compound that follows.
Report value: ED50, system: Rattus norvegicus, compound: "CCOC(=O)c1cnc(-c2cc([N+](=O)[O-])cc([N+](=O)[O-])c2OCC)[nH]c1=O"
> 50 mg/kg
